Measured EC50 of individual entries
Target: T1, hPD-1-Fc (human, UniProt Q15116 25-167)
T1 construct: domain: IgV domain; also called human PD-1-Fc; not shown: human IgG1 Fc
T1 sequence (Q15116 25-167 limits assumed): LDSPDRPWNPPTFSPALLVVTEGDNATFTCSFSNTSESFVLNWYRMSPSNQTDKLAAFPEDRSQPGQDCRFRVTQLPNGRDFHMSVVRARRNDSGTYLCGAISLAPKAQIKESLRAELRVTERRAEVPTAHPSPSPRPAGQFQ
Assay: ELISA, hPD1-Fc coated
VALUE KIND: EC50 (nM)

>>> measured_value("31B1 (antibody, V domains shown, also called 780_38; 33B1 and 31B2 (apparent misprints)) VH: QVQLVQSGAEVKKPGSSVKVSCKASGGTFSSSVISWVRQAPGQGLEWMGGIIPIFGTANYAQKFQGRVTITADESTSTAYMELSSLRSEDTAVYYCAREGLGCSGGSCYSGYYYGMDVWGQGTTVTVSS VL: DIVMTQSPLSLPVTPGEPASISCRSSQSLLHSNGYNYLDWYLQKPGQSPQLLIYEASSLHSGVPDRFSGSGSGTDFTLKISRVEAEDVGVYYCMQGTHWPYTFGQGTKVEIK")
0.167
>>> measured_value("33C4 (antibody, V domains shown, also called 780_39) VH: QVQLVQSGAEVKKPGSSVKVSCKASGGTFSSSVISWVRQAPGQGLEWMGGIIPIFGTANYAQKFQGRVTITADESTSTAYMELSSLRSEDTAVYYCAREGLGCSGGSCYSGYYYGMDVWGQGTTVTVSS VL: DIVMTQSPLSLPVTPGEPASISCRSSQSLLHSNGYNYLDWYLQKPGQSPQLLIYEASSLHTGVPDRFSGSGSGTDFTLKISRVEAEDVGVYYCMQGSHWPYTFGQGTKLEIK")
0.177
>>> measured_value("33G8 (antibody, V domains shown) VH: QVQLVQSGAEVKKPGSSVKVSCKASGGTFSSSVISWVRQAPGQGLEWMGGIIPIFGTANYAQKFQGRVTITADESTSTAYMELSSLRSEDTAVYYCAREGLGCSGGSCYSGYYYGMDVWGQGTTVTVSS VL: DIVMTQSPLSLPVTPGEPASISCRSSQSLLHSNGYNYLDWYLQKPGQSPQLLIYQASTLGSGVPDRFSGSGSGTDFTLKISRVEAEDVGVYYCMQGTHWPYTFGQGTKLEIK")
0.113
>>> measured_value("34C1 (antibody, V domains shown) VH: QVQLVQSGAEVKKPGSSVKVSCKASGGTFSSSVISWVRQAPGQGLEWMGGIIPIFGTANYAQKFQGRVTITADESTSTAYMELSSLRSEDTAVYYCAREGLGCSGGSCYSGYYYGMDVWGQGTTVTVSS VL: DIVMTQSPLSLPVTPGEPASISCRSSESLLYSNGNTYLDWYLQKPGQSPQLLIYEVSNRASGVPDRFSGSGSGTDFTLKISRVEAEDVGVYYCMQGTRWPYTFGQGTKVEIK")
0.147
